# conditions: in methanol, 290.65 K
parameter.measured: solubility (mole fraction)

For this compound ( `O=C(O)c1ccccc1Nc1ccccc1` ), measured solubility (mole fraction) is 0.00653

====

# conditions: in ethanol, 310.65 K
parameter.measured: solubility (mole fraction)
The answer should be written as a number, with no unit following it.

For this molecule ( `O=C(O)c1ccccc1Nc1ccccc1` ), measured solubility (mole fraction) is 0.0187

====

# conditions: in ethanol, 293.15 K
parameter.measured: solubility (mole fraction)
The answer should be written as a number, with no unit following it.

For this compound ( `O=C(O)c1ccccc1Nc1ccccc1` ), measured solubility (mole fraction) is 0.0123

====

# conditions: in ethanol, 305.65 K
parameter.measured: solubility (mole fraction)
The answer should be written as a number, with no unit following it.

For this compound ( `O=C(O)c1ccccc1Nc1ccccc1` ), measured solubility (mole fraction) is 0.0163

====

# conditions: in tert-butanol, 298.15 K
parameter.measured: solubility (mole fraction)

For this molecule ( `O=C(O)c1ccccc1Nc1ccccc1` ), measured solubility (mole fraction) is 0.0189

====

# conditions: in ethanol, 303.15 K
parameter.measured: solubility (mole fraction)
The answer should be written as a number, with no unit following it.

For this compound ( `O=C(O)c1ccccc1Nc1ccccc1` ), measured solubility (mole fraction) is 0.0154

====

# conditions: in tert-butanol, 310.65 K
parameter.measured: solubility (mole fraction)
The answer should be written as a number, with no unit following it.

For this compound ( `O=C(O)c1ccccc1Nc1ccccc1` ), measured solubility (mole fraction) is 0.0298

====

# conditions: in methanol, 315.65 K
parameter.measured: solubility (mole fraction)
The answer should be written as a number, with no unit following it.

For this compound ( `O=C(O)c1ccccc1Nc1ccccc1` ), measured solubility (mole fraction) is 0.0134

====

# conditions: in methanol, 308.15 K
parameter.measured: solubility (mole fraction)
The answer should be written as a number, with no unit following it.

For this molecule ( `O=C(O)c1ccccc1Nc1ccccc1` ), measured solubility (mole fraction) is 0.00971

====

# conditions: in methanol, 300.65 K
parameter.measured: solubility (mole fraction)

For this compound ( `O=C(O)c1ccccc1Nc1ccccc1` ), measured solubility (mole fraction) is 0.00837

====

# conditions: in ethanol, 295.65 K
parameter.measured: solubility (mole fraction)
The answer should be written as a number, with no unit following it.

For this compound ( `O=C(O)c1ccccc1Nc1ccccc1` ), measured solubility (mole fraction) is 0.0131

====

# conditions: in tert-butanol, 318.15 K
parameter.measured: solubility (mole fraction)
The answer should be written as a number, with no unit following it.

For this molecule ( `O=C(O)c1ccccc1Nc1ccccc1` ), measured solubility (mole fraction) is 0.0389

====

# conditions: in tert-butanol, 308.15 K
parameter.measured: solubility (mole fraction)
The answer should be written as a number, with no unit following it.

For this compound ( `O=C(O)c1ccccc1Nc1ccccc1` ), measured solubility (mole fraction) is 0.0279

====

# conditions: in methanol, 313.15 K
parameter.measured: solubility (mole fraction)
The answer should be written as a number, with no unit following it.

For this molecule ( `O=C(O)c1ccccc1Nc1ccccc1` ), measured solubility (mole fraction) is 0.0117

====

# conditions: in ethanol, 283.15 K
parameter.measured: solubility (mole fraction)
The answer should be written as a number, with no unit following it.

For this molecule ( `O=C(O)c1ccccc1Nc1ccccc1` ), measured solubility (mole fraction) is 0.0101

====

# conditions: in tert-butanol, 313.15 K
parameter.measured: solubility (mole fraction)
The answer should be written as a number, with no unit following it.

For this compound ( `O=C(O)c1ccccc1Nc1ccccc1` ), measured solubility (mole fraction) is 0.0319

====

# conditions: in tert-butanol, 303.15 K
parameter.measured: solubility (mole fraction)
The answer should be written as a number, with no unit following it.

For this compound ( `O=C(O)c1ccccc1Nc1ccccc1` ), measured solubility (mole fraction) is 0.0225

====

# conditions: in ethanol, 308.15 K
parameter.measured: solubility (mole fraction)
The answer should be written as a number, with no unit following it.

For this molecule ( `O=C(O)c1ccccc1Nc1ccccc1` ), measured solubility (mole fraction) is 0.0175

====

# conditions: in methanol, 285.65 K
parameter.measured: solubility (mole fraction)
The answer should be written as a number, with no unit following it.

For this molecule ( `O=C(O)c1ccccc1Nc1ccccc1` ), measured solubility (mole fraction) is 0.00556

====

# conditions: in tert-butanol, 315.65 K
parameter.measured: solubility (mole fraction)
The answer should be written as a number, with no unit following it.

For this compound ( `O=C(O)c1ccccc1Nc1ccccc1` ), measured solubility (mole fraction) is 0.0353

====

# conditions: in ethanol, 318.15 K
parameter.measured: solubility (mole fraction)
The answer should be written as a number, with no unit following it.

For this compound ( `O=C(O)c1ccccc1Nc1ccccc1` ), measured solubility (mole fraction) is 0.0242

====

# conditions: in ethanol, 315.65 K
parameter.measured: solubility (mole fraction)
The answer should be written as a number, with no unit following it.

For this compound ( `O=C(O)c1ccccc1Nc1ccccc1` ), measured solubility (mole fraction) is 0.0221

====

# conditions: in methanol, 305.65 K
parameter.measured: solubility (mole fraction)
The answer should be written as a number, with no unit following it.

For this compound ( `O=C(O)c1ccccc1Nc1ccccc1` ), measured solubility (mole fraction) is 0.00916

====

# conditions: in tert-butanol, 305.65 K
parameter.measured: solubility (mole fraction)

For this compound ( `O=C(O)c1ccccc1Nc1ccccc1` ), measured solubility (mole fraction) is 0.0256

====

# conditions: in methanol, 293.15 K
parameter.measured: solubility (mole fraction)
The answer should be written as a number, with no unit following it.

For this molecule ( `O=C(O)c1ccccc1Nc1ccccc1` ), measured solubility (mole fraction) is 0.00701

====

# conditions: in methanol, 283.15 K
parameter.measured: solubility (mole fraction)

For this compound ( `O=C(O)c1ccccc1Nc1ccccc1` ), measured solubility (mole fraction) is 0.00519

====

# conditions: in ethanol, 313.15 K
parameter.measured: solubility (mole fraction)
The answer should be written as a number, with no unit following it.

For this compound ( `O=C(O)c1ccccc1Nc1ccccc1` ), measured solubility (mole fraction) is 0.02

====

# conditions: in methanol, 318.15 K
parameter.measured: solubility (mole fraction)
The answer should be written as a number, with no unit following it.

For this molecule ( `O=C(O)c1ccccc1Nc1ccccc1` ), measured solubility (mole fraction) is 0.0156

====

# conditions: in methanol, 298.15 K
parameter.measured: solubility (mole fraction)
The answer should be written as a number, with no unit following it.

For this compound ( `O=C(O)c1ccccc1Nc1ccccc1` ), measured solubility (mole fraction) is 0.00796

====

# conditions: in ethanol, 285.65 K
parameter.measured: solubility (mole fraction)
The answer should be written as a number, with no unit following it.

For this compound ( `O=C(O)c1ccccc1Nc1ccccc1` ), measured solubility (mole fraction) is 0.0107
